# ASSAYED SYSTEM: HLA-A0301 (human)
# PROTOCOL CONDITIONS: remark: other sources report otherwise
PROPERTY: Ki

Exercise: Give its Ki value. Item: VTLTHPITK (modifications not checked) […]
Key: < 1 µM
